Target: HIV-1 Env of isolate MGRM-F1-008 (subtype F) (HIV-1)
Assay: cell-based or functional assay
measuredParameter: IC50 (neutralization)

PGT-127 (antibody, V domains shown) VH: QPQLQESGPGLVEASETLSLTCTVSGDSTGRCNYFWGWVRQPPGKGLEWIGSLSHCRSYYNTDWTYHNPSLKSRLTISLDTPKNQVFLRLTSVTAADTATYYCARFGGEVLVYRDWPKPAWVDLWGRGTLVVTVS VL: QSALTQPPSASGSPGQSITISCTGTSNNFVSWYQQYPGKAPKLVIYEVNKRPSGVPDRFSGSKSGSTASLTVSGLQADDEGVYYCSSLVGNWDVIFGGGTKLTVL : > 50 mg/L

Attention now turns to another entry.
Query block: Item PGT-135 (antibody, V domains shown) VH: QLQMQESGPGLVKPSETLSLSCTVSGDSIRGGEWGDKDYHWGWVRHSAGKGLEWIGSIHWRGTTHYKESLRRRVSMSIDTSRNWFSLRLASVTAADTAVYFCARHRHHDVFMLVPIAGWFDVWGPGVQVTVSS VL: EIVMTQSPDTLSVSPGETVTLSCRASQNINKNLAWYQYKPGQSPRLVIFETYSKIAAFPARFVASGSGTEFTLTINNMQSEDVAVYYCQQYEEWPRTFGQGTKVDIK : provide IC50 (neutralization)
Result block: > 50 mg/L
